# MEASURED TARGET: T1, gp130 on HepG2 B6 cells (UniProt P40189 23-918, limits assumed)
# T1 sequence (looked up): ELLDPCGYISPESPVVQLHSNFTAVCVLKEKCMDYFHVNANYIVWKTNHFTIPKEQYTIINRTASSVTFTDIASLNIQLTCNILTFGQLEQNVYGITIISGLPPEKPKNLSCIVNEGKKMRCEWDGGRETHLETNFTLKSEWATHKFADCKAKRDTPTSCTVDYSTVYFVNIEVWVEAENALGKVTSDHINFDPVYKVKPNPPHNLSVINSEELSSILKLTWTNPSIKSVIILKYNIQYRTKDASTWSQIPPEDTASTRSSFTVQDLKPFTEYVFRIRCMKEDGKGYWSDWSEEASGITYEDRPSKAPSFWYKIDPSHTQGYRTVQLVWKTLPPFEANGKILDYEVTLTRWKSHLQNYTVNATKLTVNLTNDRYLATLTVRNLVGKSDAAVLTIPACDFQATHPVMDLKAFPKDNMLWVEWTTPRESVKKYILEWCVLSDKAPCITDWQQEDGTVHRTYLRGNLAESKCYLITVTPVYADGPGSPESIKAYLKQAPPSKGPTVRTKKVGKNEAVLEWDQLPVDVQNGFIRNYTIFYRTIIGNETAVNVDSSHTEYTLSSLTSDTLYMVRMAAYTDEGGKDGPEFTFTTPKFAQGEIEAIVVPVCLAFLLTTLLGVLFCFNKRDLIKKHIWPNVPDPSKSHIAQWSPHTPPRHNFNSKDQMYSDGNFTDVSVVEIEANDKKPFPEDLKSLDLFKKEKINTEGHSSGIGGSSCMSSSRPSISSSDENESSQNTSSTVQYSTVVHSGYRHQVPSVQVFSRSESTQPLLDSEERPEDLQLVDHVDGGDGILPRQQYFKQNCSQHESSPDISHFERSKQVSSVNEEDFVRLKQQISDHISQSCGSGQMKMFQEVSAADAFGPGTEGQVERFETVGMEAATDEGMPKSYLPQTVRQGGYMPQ
# TEST NAME: cell-based or functional assay
RESULT TYPE: sPAP HepG2 B6 assay: Expt 2 EC50 (µg/mL)

binder="OSM-GST mutant Y126A (ligand, not shown: a dimerising Fc or GST; large carriers; small tags and cut ends, Alanine mutant of m4; also called (24)Y126A; 24 Y126A) AAIGSCSKEYRVLLGQLQKQTDLMQDTSRLLDPYIRIQGLDVPKLREHCRERPGAFPSEETLRGLGRRGFLQTLNATLGCVLHRLADLEQRLPKAQDLERSGLNIEDLEKLQMARPNILGLRNNIACMAQLLDNSDTAEPTKAGRGASQPPTPTPASDAFQRKLEGCRFLHGYHRFMHSVGRVFSKWGESPNRSRR" value_observed=0.0103
binder="OSM-GST mutant N123A (ligand, not shown: a dimerising Fc or GST; large carriers; small tags and cut ends, Alanine mutant of m4; also called (22)N123A; 22 N123A) AAIGSCSKEYRVLLGQLQKQTDLMQDTSRLLDPYIRIQGLDVPKLREHCRERPGAFPSEETLRGLGRRGFLQTLNATLGCVLHRLADLEQRLPKAQDLERSGLNIEDLEKLQMARPNILGLRANIYCMAQLLDNSDTAEPTKAGRGASQPPTPTPASDAFQRKLEGCRFLHGYHRFMHSVGRVFSKWGESPNRSRR" value_observed=0.0497
binder="OSM-GST mutant L119A (ligand, not shown: a dimerising Fc or GST; large carriers; small tags and cut ends, Alanine mutant of m4; also called (19)L119A; 19 L119A) AAIGSCSKEYRVLLGQLQKQTDLMQDTSRLLDPYIRIQGLDVPKLREHCRERPGAFPSEETLRGLGRRGFLQTLNATLGCVLHRLADLEQRLPKAQDLERSGLNIEDLEKLQMARPNIAGLRNNIYCMAQLLDNSDTAEPTKAGRGASQPPTPTPASDAFQRKLEGCRFLHGYHRFMHSVGRVFSKWGESPNRSRR" value_observed=0.023
binder="OSM-GST mutant L17A (ligand, Alanine mutant of m4; also called (10)L17A; 10 L17A; not shown: Its linker is left out) AAIGSCSKEYRVLLGQAQKQTDLMQDTSRLLDPYIRIQGLDVPKLREHCRERPGAFPSEETLRGLGRRGFLQTLNATLGCVLHRLADLEQRLPKAQDLERSGLNIEDLEKLQMARPNILGLRNNIYCMAQLLDNSDTAEPTKAGRGASQPPTPTPASDAFQRKLEGCRFLHGYHRFMHSVGRVFSKWGESPNRSRR" value_observed=0.056
